System: HMPV clinical isolate TN/1501/A1
Test: HMPV antiviral assay Method-B (clinical isolate TN/1501/A1 in LLC-MK2 cells, ATP-Lite readout)
Format: cell-based, Human metapneumovirus (HMPV)
Conditions: human metapneumovirus, LLC-MK2, 144 h, hMPV WT1501 (clinical isolate TN/1501/A1), 6 days
Procedure: In vitro HMPV antiviral activity was evaluated using the clinical isolate TN/1501/A1 and LLC-MK2 cells (ATCC #CCL-7), an immortalized kidney epithelial cell line from Macaca mulatta. […] The test compounds were assessed in duplicate at a top concentration of 10 μM followed by 3-fold serial dilutions to give a total of 10 concentration points. […] Cells were counted and seeded at a density of 5,000 cells/well, 12.5 μL/well. […]

| compound | EC50 |
| --- | --- |
| COc1cc(C(=O)NC[C@](O)(c2cc3c(c(-c4ccc(F)cc4Cl)n2)OC[C@]3(C)C(N)=O)C2CC2)cc2cn(C3(F)CC3)nc12 [Example 652] | < 500 nM |
| COc1cc(C(=O)NC[C@](O)(c2cc3c(c(-c4ccc(F)cc4)n2)OC[C@]3(C)C(N)=O)C2(F)CC2)cc2cn(C3(F)CC3)nc12 [Example 756] | < 500 nM |
| Cc1cnc2c(OCC(F)F)cc(C(=O)NC[C@](O)(c3cc4c(c(-c5ccc(F)c(Cl)c5)n3)OC[C@]4(C)C(N)=O)C(F)(F)F)cc2c1 [Example 497] | < 500 nM |
